Entry source: paper PMC3986399

Target: PGDH mutant K256A (Escherichia coli, UniProt P0A9T0, K256A)
Construct: The PGDH coding region was ligated into the pET21a(+) vector
Assay: PGDH enzyme assay, mutant K256A
pIC50: −log10 of the molar value.
assay-metric: pIC50

Ask: Hello, please tell me recorded pIC50 for this one: `Cc1ccc(N2NC(=O)/C(=C/c3ccc(-c4ccc(S(=O)(=O)Nc5nccs5)cc4)o3)C2=O)cc1C`
Result: < 3.70

---

Biological target: PGDH mutant F147A (Escherichia coli, UniProt P0A9T0, F147A)
Construct: The PGDH coding region was ligated into the pET21a(+) vector; made in house; host or cells: E. coli BL21 (DE3)
Assay: PGDH enzyme assay, mutant F147A
Assay type: biochemical
Measured pIC50, listed per entry for reference.
The value called pIC50 is obtained by taking minus log10 of the concentration in mol/L.

compound-structure	assay-metric	value-measured
Cc1ccc(N2NC(=O)/C(=C/c3ccc(-c4ccc(S(=O)(=O)Nc5nccs5)cc4)o3)C2=O)cc1C	pIC50	3.80

We now examine a further molecule.
Ask: Hello, please tell me recorded pIC50 for this one: `O=C1NC(=S)NC(=O)C1=Cc1ccc(OC(=O)c2ccc3nc(-c4ccccc4)c(-c4ccccc4)nc3c2)cc1`
Result: 3.74

---

Target: PGDH (WT) (Escherichia coli, UniProt P0A9T0)
Construct: The PGDH coding region was ligated into the pET21a(+) vector; made in house; host or cells: E. coli BL21 (DE3)
Experiment: SPR direct binding to immobilized PGDH
Conditions: SPR, 1:1 Langmuir binding model, PGDH 800 RU; read-out: KD
assay-metric: pKd
The value called pKd is obtained by taking minus log10 of the concentration in mol/L.

Ask: Hello, please tell me recorded pKd for this one: `Cc1ccc(N2NC(=O)/C(=C/c3ccc(-c4ccc(S(=O)(=O)Nc5nccs5)cc4)o3)C2=O)cc1C`
Result: 4.72

---

Target: PGDH mutant E129A (Escherichia coli, UniProt P0A9T0, E129A)
Construct: The PGDH coding region was ligated into the pET21a(+) vector
Experiment: PGDH enzyme assay, mutant E129A
assay-metric: pIC50
The value called pIC50 is obtained by taking minus log10 of the concentration in mol/L.

Ask: Hello, please tell me recorded pIC50 for this one: `Cc1ccc(N2NC(=O)/C(=C/c3ccc(-c4ccc(S(=O)(=O)Nc5nccs5)cc4)o3)C2=O)cc1C`
Result: 4.00

---

Biological target: PGDH (WT) (Escherichia coli)
Construct: The PGDH coding region was ligated into the pET21a(+) vector; made in house; host or cells: E. coli BL21 (DE3)
Assay: SPR direct binding to immobilized PGDH
assay-metric: pKd
The value called pKd is obtained by taking minus log10 of the concentration in mol/L.

Ask: Param request: pKd | system PGDH (WT) (Escherichia coli) | item `O=C1NC(=S)NC(=O)C1=Cc1ccc(OC(=O)c2ccc3nc(-c4ccccc4)c(-c4ccccc4)nc3c2)cc1`
Result: 4.37

---

Molecular target: PGDH mutant E129AK256A (Escherichia coli, UniProt P0A9T0, E129A/K256A)
Construct: The PGDH coding region was ligated into the pET21a(+) vector
Assay: PGDH enzyme assay, mutant E129AK256A
pIC50: −log10 of the molar value.
assay-metric: pIC50

Ask: Hello, please tell me recorded pIC50 for this one: Cc1ccc(N2NC(=O)/C(=C/c3ccc(-c4ccc(S(=O)(=O)Nc5nccs5)cc4)o3)C2=O)cc1C [Compound 2]
Result: < 3.70

---

Target: PGDH mutant S146A (Escherichia coli, UniProt P0A9T0, S146A)
Construct: The PGDH coding region was ligated into the pET21a(+) vector
Experiment: PGDH enzyme assay, mutant S146A
assay-metric: IC50 (µM)
Return type: number; implicit unit µM.

Ask: Hello, please tell me recorded IC50 for this one: `O=C1NC(=S)NC(=O)C1=Cc1ccc(OC(=O)c2ccc3nc(-c4ccccc4)c(-c4ccccc4)nc3c2)cc1`
Result: 175
